ASSAYED TARGET: recombinant human MASP2 (amino acids 297-686, C-terminal His Tag) (human, UniProt O00187 297-686)
Sequence (O00187 other isoform, or with tags, fused parts or gaps limits assumed): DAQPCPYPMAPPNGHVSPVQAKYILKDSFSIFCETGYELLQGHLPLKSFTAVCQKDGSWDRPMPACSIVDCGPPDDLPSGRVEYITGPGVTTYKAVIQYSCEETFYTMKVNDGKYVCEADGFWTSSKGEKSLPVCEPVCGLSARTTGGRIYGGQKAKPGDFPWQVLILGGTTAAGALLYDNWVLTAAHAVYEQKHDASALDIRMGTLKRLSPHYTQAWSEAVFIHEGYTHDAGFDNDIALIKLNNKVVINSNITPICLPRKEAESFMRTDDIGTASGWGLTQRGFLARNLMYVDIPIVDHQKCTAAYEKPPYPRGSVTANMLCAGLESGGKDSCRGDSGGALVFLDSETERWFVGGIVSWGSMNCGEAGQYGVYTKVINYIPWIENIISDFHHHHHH
PROTOCOL SUMMARY: cell-based or functional assay
Bridges are numbered along the chain shown (N, C = ends). Where no end group is shown, it is not given here. [ ]: non-standard residue; d: D form. Oic = O=C(O)[C@@H]1C[C@@H]2CCCC[C@@H]2N1; tBuAla = CC(C)(C)C[C@H](N)C(=O)O; Pen = CC(C)(S)[C@H](N)C(=O)O; Orn = NCCC[C@H](N)C(=O)O; Dap = NC[C@H](N)C(=O)O; PEG2 = NCCOCCOCCC(=O)O; Ahx = NCCCCCC(=O)O
PROPERTY MEASURED: human MASP2 IC50 (nM)
One number for each entry, in nM.

cyclo(AGGICSRSLP[Oic]I[Pen]IPD) (disulfide 5-13; also: TFA salt) [Example 92: A**GGIC+SRSLP-(Oic)-I-(Pen)+-IPD**]
77
EGICSRSLP[Oic]I[Pen]IPD[Dap]-NH2 (lactam 1-16; disulfide 4-12; also: TFA salt) [Example 93: E++GIC+SRSLP-(Oic)-I-(Pen)+-IPD-(Dap)++-NH2]
45
cyclo([Ahx]GICSRSLPPICIPD) (disulfide 4-12; also: HCl salt) [Example 94: (Ahx)**-GIC+SRSLPPIC+IPD** (HCl Salt)]
130
cyclo([PEG2]AICSRS[tBuAla]PPI[Pen]IPD) (disulfide 4-12; also: TFA salt) [Example 34: (PEG1(10 atoms))**-AIC+SRS-((tBu)A)-PPI-(Pen)+-IPD**]
98

Here's the next entry for you.
// sample [Orn]ICSRS[tBuAla]PPI[Pen]IP (lactam 1-C; disulfide 3-11; also: TFA salt) [Example 71: (Orn)++-IC+SRS-((tBu)A)-PPI-(Pen)+-IP**] , its human MASP2 IC50 was 24
